- target-system: PFKM 6-phosphofructokinase, muscle type (Homo sapiens, UniProt P08237)
- Construct: isoTOP-ABPP experiments performed in cell lysates (in vitro); endogenous in cells; host or cells: MDA-MB-231 soluble lysate
- Sequence (P08237 whole entry): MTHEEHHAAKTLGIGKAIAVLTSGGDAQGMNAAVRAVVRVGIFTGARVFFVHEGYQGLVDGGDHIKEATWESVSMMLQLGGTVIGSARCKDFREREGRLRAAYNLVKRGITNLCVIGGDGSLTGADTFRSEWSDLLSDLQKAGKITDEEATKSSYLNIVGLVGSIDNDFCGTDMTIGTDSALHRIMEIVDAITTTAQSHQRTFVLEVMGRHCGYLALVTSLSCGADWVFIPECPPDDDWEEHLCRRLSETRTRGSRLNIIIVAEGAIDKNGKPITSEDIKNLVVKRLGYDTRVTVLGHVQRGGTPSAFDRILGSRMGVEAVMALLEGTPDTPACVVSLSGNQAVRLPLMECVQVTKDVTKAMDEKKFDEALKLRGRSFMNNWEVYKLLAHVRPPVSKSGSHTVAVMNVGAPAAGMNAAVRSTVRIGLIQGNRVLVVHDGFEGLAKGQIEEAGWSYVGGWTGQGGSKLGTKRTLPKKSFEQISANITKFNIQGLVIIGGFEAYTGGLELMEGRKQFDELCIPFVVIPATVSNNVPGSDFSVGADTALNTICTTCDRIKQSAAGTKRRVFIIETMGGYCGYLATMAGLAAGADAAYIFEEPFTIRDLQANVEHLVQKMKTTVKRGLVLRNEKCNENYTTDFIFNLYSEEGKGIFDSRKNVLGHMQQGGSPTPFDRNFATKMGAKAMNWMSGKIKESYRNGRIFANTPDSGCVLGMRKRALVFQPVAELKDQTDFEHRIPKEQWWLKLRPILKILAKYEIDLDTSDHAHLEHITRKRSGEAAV
- assay-summary: competitive isoTOP-ABPP
- Format: binding
- conditions-used: 50 uM, 231 sol, in vitro
Please respond with class 1 when measured isoTOP-ABPP reactivity ratio at lysine P08237_K678 is strictly beneath 3, and with class 0 in all other cases.

COc1cc(CCC(=O)Oc2ccc([N+](=O)[O-])cc2[N+](=O)[O-])cc(OC)c1OC ... class 0
O=C(Oc1ccc([N+](=O)[O-])cc1[N+](=O)[O-])C(c1ccccc1)c1ccccc1 [fragment 30, 2,4-Dinitrophenyl 2,2-diphenylacetate] ... class 0

isoTOP-ABPP reactivity ratio at lysine P08237_K678 under 3? Item: O=C(Oc1ccc([N+](=O)[O-])cc1[N+](=O)[O-])c1cc(C(F)(F)F)cc(C(F)(F)F)c1
class 1

isoTOP-ABPP reactivity ratio at lysine P08237_K678 under 3? Item: CCn1cc(C(=O)Oc2c(F)c(F)c(F)c(F)c2F)c(=O)c2ccc(C)nc21
class 1

isoTOP-ABPP reactivity ratio at lysine P08237_K678 under 3? Item: Cn1cc(CC(=O)Oc2ccc([N+](=O)[O-])cc2[N+](=O)[O-])c2ccccc21
class 0

isoTOP-ABPP reactivity ratio at lysine P08237_K678 under 3? Item: O=C(CCc1coc2cc(F)ccc2c1=O)Oc1c(F)c(F)c(F)c(F)c1F
class 1

isoTOP-ABPP reactivity ratio at lysine P08237_K678 under 3? Item: O=C(CN1C(=O)c2ccccc2C1=O)Oc1c(F)c(F)c(F)c(F)c1F
class 1

---

- target-system: ERAP1 Endoplasmic reticulum aminopeptidase 1 (Homo sapiens, UniProt Q9NZ08)
- Construct: endogenous in cells; host or cells: MDA-MB-231 lysate
- Sequence (Q9NZ08 whole entry, the tested form may be a part): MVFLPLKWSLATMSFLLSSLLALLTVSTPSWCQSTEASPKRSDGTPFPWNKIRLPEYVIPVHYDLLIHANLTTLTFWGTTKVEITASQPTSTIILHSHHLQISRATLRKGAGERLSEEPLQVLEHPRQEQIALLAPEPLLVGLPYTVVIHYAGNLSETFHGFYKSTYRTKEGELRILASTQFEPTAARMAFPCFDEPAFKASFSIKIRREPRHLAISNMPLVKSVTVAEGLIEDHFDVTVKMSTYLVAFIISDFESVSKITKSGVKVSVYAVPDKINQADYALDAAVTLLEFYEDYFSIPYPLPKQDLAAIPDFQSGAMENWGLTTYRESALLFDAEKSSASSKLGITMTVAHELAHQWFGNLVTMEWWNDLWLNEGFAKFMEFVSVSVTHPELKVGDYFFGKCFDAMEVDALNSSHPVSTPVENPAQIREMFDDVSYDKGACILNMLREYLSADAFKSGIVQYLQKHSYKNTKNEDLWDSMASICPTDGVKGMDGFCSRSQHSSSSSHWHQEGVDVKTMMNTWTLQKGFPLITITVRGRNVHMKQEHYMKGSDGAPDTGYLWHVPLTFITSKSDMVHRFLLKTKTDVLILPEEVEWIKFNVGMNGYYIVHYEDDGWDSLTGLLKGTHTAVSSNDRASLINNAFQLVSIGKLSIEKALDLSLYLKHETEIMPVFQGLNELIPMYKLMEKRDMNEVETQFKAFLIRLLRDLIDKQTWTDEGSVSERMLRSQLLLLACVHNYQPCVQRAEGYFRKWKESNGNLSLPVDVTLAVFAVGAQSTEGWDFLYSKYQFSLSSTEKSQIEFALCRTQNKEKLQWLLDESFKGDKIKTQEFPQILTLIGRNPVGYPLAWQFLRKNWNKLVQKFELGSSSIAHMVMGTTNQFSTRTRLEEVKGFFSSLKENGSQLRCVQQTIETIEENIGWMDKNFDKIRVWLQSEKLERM
- assay-summary: competitive isoTOP-ABPP
- Assay type: binding
- conditions-used: 50 uM_231_sol_in vitro
Recorded measurements of isoTOP-ABPP ratio, lysine Q9NZ08_K685, one per entry
Lab note: jot the number down without any unit.

O=C(CCc1ccc2c(c1)OCO2)Oc1ccc([N+](=O)[O-])cc1[N+](=O)[O-] [fragment 45] ... 1.3

What isoTOP-ABPP ratio, lysine Q9NZ08_K685 appears in the records for this molecule with ERAP1 Endoplasmic reticulum aminopeptidase 1 (Homo sapiens, UniProt Q9NZ08)? N#Cc1ccc(C(=O)Oc2ccc([N+](=O)[O-])cc2[N+](=O)[O-])cc1 [fragment 44, 2,4-Dinitrophenyl 4-cyanobenzoate]
1.6

What isoTOP-ABPP ratio, lysine Q9NZ08_K685 appears in the records for this molecule with ERAP1 Endoplasmic reticulum aminopeptidase 1 (Homo sapiens, UniProt Q9NZ08)? O=C(ON1C(=O)CCC1=O)c1cc(C(F)(F)F)cc(C(F)(F)F)c1 [fragment 46]
2.1

What isoTOP-ABPP ratio, lysine Q9NZ08_K685 appears in the records for this molecule with ERAP1 Endoplasmic reticulum aminopeptidase 1 (Homo sapiens, UniProt Q9NZ08)? NC(=O)c1cc(C(F)(F)F)cc(C(F)(F)F)c1 [fragment 51, reference compound]
0.9

What isoTOP-ABPP ratio, lysine Q9NZ08_K685 appears in the records for this molecule with ERAP1 Endoplasmic reticulum aminopeptidase 1 (Homo sapiens, UniProt Q9NZ08)? O=C(Oc1c(F)c(F)c(C(F)(F)F)c(F)c1F)c1cc(C(F)(F)F)cc(C(F)(F)F)c1 [fragment 47]
1.3

What isoTOP-ABPP ratio, lysine Q9NZ08_K685 appears in the records for this molecule with ERAP1 Endoplasmic reticulum aminopeptidase 1 (Homo sapiens, UniProt Q9NZ08)? O=C(Oc1c(F)c(F)cc(F)c1F)c1cc(C(F)(F)F)cc(C(F)(F)F)c1 [fragment 48]
1.5

---

- target-system: ATP6V1F V-type proton ATPase subunit F (Homo sapiens)
- Construct: isoTOP-ABPP experiments performed in cell lysates (in vitro); endogenous in cells; host or cells: soluble proteome of human cancer cell lines (MDA-MB-231; Ramos and Jurkat also prepared)
- Sequence (Q16864 whole entry): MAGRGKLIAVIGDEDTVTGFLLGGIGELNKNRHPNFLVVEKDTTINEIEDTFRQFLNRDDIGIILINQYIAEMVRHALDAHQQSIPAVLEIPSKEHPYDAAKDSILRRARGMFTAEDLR
- assay-summary: competitive isoTOP-ABPP
- Type: binding
- conditions-used: 50 uM, in vitro, sol, 231
observed-property: isoTOP-ABPP ratio (R) at liganded lysine Q16864_K6

Example cases with answers are listed next.
O=C(Oc1ccc([N+](=O)[O-])cc1[N+](=O)[O-])c1ccc(Oc2ccccc2)cc1 [fragment 39, 2,4-Dinitrophenyl 4-phenoxybenzoate] ... 0.9
CC(C)(C)OC(=O)NCCCC(=O)Oc1ccc([N+](=O)[O-])cc1[N+](=O)[O-] [fragment 41] ... 1.0
O=C(Oc1ccc([N+](=O)[O-])cc1[N+](=O)[O-])c1ccccc1Nc1cccc(C(F)(F)F)c1 [fragment 40] ... 0.9
O=C(Oc1ccc([N+](=O)[O-])cc1[N+](=O)[O-])C(c1ccccc1)(c1ccccc1)c1ccccc1 [fragment 42, 2,4-Dinitrophenyl 2,2,2-triphenylacetate] ... 1.0
O=C(CCc1coc2cc(F)ccc2c1=O)Oc1ccc([N+](=O)[O-])cc1[N+](=O)[O-] [fragment 36] ... 1.0

Could you tell me which isoTOP-ABPP ratio (R) at liganded lysine Q16864_K6 is on file for CC(=O)Oc1ccc([N+](=O)[O-])cc1[N+](=O)[O-] [fragment 43, 2,4-Dinitrophenyl acetate] ?
20.0

Could you tell me which isoTOP-ABPP ratio (R) at liganded lysine Q16864_K6 is on file for O=C(Oc1ccc([N+](=O)[O-])cc1[N+](=O)[O-])c1ccc(-c2ccccc2)cc1 [fragment 37] ?
1.0

Could you tell me which isoTOP-ABPP ratio (R) at liganded lysine Q16864_K6 is on file for O=C(CC12CC3CC(CC(C3)C1)C2)Oc1ccc([N+](=O)[O-])cc1[N+](=O)[O-] [fragment 38] ?
1.0

---

- target-system: PSME3 Proteasome activator complex subunit 3 (Homo sapiens, UniProt P61289)
- Construct: isoTOP-ABPP experiments performed in cell lysates (in vitro); endogenous in cells; host or cells: soluble proteome of human cancer cell lines (MDA-MB-231, Ramos, Jurkat)
- Sequence (P61289 whole entry, one chain of several): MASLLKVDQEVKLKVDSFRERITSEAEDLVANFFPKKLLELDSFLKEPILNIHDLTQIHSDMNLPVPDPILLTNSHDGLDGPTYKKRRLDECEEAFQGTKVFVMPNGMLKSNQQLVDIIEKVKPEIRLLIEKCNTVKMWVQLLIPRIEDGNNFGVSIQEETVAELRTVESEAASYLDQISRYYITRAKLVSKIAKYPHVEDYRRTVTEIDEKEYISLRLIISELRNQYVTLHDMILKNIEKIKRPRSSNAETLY
- assay-summary: competitive isoTOP-ABPP
- Assay type: binding
- conditions-used: 50 uM, in vitro, sol, 231
Recorded measurements of isoTOP-ABPP ratio (R) at liganded lysine P61289_K237, one per entry
Lab note: jot the number down without any unit.

O=C(Oc1ccc([N+](=O)[O-])cc1[N+](=O)[O-])c1ccc(Oc2ccccc2)cc1 [fragment 39, 2,4-Dinitrophenyl 4-phenoxybenzoate] ... 0.9
O=C(Oc1ccc([N+](=O)[O-])cc1[N+](=O)[O-])C(c1ccccc1)(c1ccccc1)c1ccccc1 [fragment 42, 2,4-Dinitrophenyl 2,2,2-triphenylacetate] ... 0.9
CC(C)(C)OC(=O)NCCCC(=O)Oc1ccc([N+](=O)[O-])cc1[N+](=O)[O-] ... 2.2
O=C(CCc1coc2cc(F)ccc2c1=O)Oc1ccc([N+](=O)[O-])cc1[N+](=O)[O-] ... 1.4
O=C(Oc1ccc([N+](=O)[O-])cc1[N+](=O)[O-])c1ccc(-c2ccccc2)cc1 ... 1.0

What isoTOP-ABPP ratio (R) at liganded lysine P61289_K237 appears in the records for this molecule with PSME3 Proteasome activator complex subunit 3 (Homo sapiens, UniProt P61289)? O=C(Oc1ccc([N+](=O)[O-])cc1[N+](=O)[O-])c1ccc2ccccc2n1
0.8

What isoTOP-ABPP ratio (R) at liganded lysine P61289_K237 appears in the records for this molecule with PSME3 Proteasome activator complex subunit 3 (Homo sapiens, UniProt P61289)? O=C(Oc1ccc([N+](=O)[O-])cc1[N+](=O)[O-])c1ccccc1Nc1cccc(C(F)(F)F)c1
0.7

---

- target-system: AKR1C3 Aldo-keto reductase family 1 member C3 (Homo sapiens, UniProt P42330)
- Construct: isoTOP-ABPP experiments performed in cell lysates (in vitro); endogenous in cells; host or cells: soluble proteome of human cancer cell lines (MDA-MB-231; Ramos and Jurkat also prepared)
- Sequence (P42330 1-323): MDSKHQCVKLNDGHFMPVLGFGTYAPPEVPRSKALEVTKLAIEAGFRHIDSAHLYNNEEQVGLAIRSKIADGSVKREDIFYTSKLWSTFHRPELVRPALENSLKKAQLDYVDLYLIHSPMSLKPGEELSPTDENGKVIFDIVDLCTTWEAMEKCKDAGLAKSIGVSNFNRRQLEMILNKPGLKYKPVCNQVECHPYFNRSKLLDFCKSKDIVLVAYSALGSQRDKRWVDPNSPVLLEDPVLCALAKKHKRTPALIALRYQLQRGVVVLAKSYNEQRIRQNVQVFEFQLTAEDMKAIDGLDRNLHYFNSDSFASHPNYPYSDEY
- assay-summary: competitive isoTOP-ABPP
- Assay type: binding
- conditions-used: 50 uM_231_sol_in vitro; possible other lysine P52895_K270, P17516_K270, Q04828_K270
observed-property: isoTOP-ABPP ratio, lysine P42330_K270
Lab note: jot the number down without any unit.

Example cases with answers are listed next.
O=C(CCc1ccc2c(c1)OCO2)Oc1ccc([N+](=O)[O-])cc1[N+](=O)[O-] ... 0.8
N#Cc1ccc(C(=O)Oc2ccc([N+](=O)[O-])cc2[N+](=O)[O-])cc1 [fragment 44, 2,4-Dinitrophenyl 4-cyanobenzoate] ... 0.5

Could you tell me which isoTOP-ABPP ratio, lysine P42330_K270 is on file for O=C(Oc1c(F)c(F)c(C(F)(F)F)c(F)c1F)c1cc(C(F)(F)F)cc(C(F)(F)F)c1 ?
2.5

Could you tell me which isoTOP-ABPP ratio, lysine P42330_K270 is on file for NC(=O)c1cc(C(F)(F)F)cc(C(F)(F)F)c1 [fragment 51, reference compound] ?
0.8
